From: patent US5470858A

In this section, each of the molecules is paired with its reported change in vivo at 300 mg/kg/day.
- System: hyperlipaemic SD male rats
- Test description: Hypolipemizing activity, 5 days experimental model, modified Nath diet
- Assay type: in vivo
- Study conditions: 120 h, rat, oral, 300 mg/kg/day, read-out: Total Cholesterol (percent variation vs hyperlipaemic controls)
Provide the reading as a plain figure in %.

Please review the following examples before continuing.
>  <Molecule>
CC(C)COC(=O)c1ccc(OCC(O)CSc2nc3ccccc3[nH]2)cc1 (stereo not drawn)

>  <Unit string>
%

>  <change in vivo at 300 mg/kg/day>
9.1

$$$$
>  <Molecule>
CC(C)COC(=O)c1ccc(OCC(=O)CSc2nc3ccccc3o2)cc1

>  <Unit string>
%

>  <change in vivo at 300 mg/kg/day>
-5.2

$$$$
>  <Molecule>
CC(C)COC(=O)c1ccc(OCC(=O)CSc2nc3ccccc3s2)cc1

>  <Unit string>
%

>  <change in vivo at 300 mg/kg/day>
-19.5

$$$$
>  <Molecule>
CC(C)COC(=O)c1ccc(OCC(=O)CSc2nc3c([nH]2)c(=O)n(C)c(=O)n3C)cc1

>  <Unit string>
%

>  <change in vivo at 300 mg/kg/day>
-10.5

$$$$

Qu. Provide change in vivo at 300 mg/kg/day value for the following molecule: "CC(C)COC(=O)c1ccc(OCCCSc2nc3c(N)ncnc3n2[C@@H]2O[C@H](CO)[C@@H](O)[C@H]2O)cc1"
Ans. -5.2
